Reference source for all entries: ChEMBL document CHEMBL5291721

Target: 3',5'-cyclic-AMP phosphodiesterase 4D (Homo sapiens); also: assay procedure not described here
Sequence (Q08499 whole entry): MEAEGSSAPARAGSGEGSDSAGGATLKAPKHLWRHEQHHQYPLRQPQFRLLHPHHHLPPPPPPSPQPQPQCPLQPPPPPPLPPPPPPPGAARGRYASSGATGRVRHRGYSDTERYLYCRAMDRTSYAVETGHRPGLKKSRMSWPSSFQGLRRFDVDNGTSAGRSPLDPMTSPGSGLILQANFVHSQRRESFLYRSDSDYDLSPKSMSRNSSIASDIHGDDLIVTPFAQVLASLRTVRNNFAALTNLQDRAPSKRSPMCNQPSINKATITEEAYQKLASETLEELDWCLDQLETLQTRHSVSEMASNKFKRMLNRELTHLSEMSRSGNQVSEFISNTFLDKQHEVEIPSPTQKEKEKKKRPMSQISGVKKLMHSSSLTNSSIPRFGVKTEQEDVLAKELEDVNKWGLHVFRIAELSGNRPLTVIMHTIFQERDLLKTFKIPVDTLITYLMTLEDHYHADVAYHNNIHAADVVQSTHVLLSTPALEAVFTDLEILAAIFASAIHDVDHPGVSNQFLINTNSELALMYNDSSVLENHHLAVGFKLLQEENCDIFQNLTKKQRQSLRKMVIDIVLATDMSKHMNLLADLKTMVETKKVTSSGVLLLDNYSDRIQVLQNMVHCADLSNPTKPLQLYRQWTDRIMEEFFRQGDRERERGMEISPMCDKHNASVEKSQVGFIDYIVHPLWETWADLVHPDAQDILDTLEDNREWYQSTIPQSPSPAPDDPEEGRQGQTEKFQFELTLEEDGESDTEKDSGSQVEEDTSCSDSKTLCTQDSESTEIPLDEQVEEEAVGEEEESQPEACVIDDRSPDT
Type: functional
EXPERIMENTAL_ENDPOINT: AC50

CO/N=C(\C(=O)N[C@@H]1C(=O)N2C(C(=O)O)=C(COC(N)=O)CS[C@H]12)c1ccco1 ... > 30 µM
N=C(N)NCCCCCCC(=O)NC(O)C(=O)NCCCCNCCCN (centres undefined) ... > 30 µM
CCn1cc(C(=O)O)c(=O)c2cc(F)c(N3CCNCC3)nc21 ... > 10 µM

Lookup: What does the record list as AC50 for CCCCNc1ccc(C(=O)OCCN(C)C)cc1 ?
Found: > 30 µM

Lookup: May I ask what AC50 has been recorded for Nc1nc(F)nc2c1ncn2[C@@H]1O[C@H](COP(=O)(O)O)[C@@H](O)[C@@H]1O [FLUDARABINE PHOSPHATE] ?
Found: > 30 µM

Lookup: Field request: AC50 | item: CC[N+]1(C)CCCC(OC(=O)C(O)(c2ccccc2)c2ccccc2)C1 (centres undefined) [PIPENZOLATE]
Found: > 30 µM
